# method_summary: Half life in Sprague-Dawley rat at 10 mg/kg, po via gavage after 48 hrs by LC-MS/MS analysis
# Format: ADME, organism-based
# measurement_setup: in vivo
quantity_kind: half-life (h)
The reply should contain only the number, in h.

Here's what some known entries look like.
Task item: Using the record for CC#CCn1c(N2CCC[C@@H](N)C2)nc2c1c(=O)n(Cc1ccc(Cl)cc1C(=O)OC)c(=O)n2C , report its half-life.
Reply: 10.1

Task item: Param item: CC#CCn1c(N2CCC[C@@H](N)C2)nc2c1c(=O)n(Cc1ccc(Cl)cc1C(=O)OCC)c(=O)n2C
Reply: 8.02

Turning to the following molecule.
Task item: State the recorded half-life for this entry: CC#CCn1c(N2CCC[C@@H](N)C2)nc2c1c(=O)n(Cc1ccc(Cl)cc1C(=O)O)c(=O)n2C
Reply: 1.77

---

Tmax overview
# method_summary: Tmax in Sprague-Dawley rat at 10 mg/kg, po via gavage after 48 hrs by LC-MS/MS analysis
# Assay type: ADME, organism-based
# measurement_setup: in vivo
Output spec: scalar in min, unitless text.

The examples below pair each entry with its known result.
Task item: Could you tell me which Tmax is on file for CC#CCn1c(N2CCC[C@@H](N)C2)nc2c1c(=O)n(Cc1ccc(Cl)cc1C(=O)OCC)c(=O)n2C ?
Reply: 30

Task item: Same read-out for CC#CCn1c(N2CCC[C@@H](N)C2)nc2c1c(=O)n(Cc1ccc(Cl)cc1C(=O)O)c(=O)n2C ?
Reply: 10.2

Then there is this compound:
Task item: Entry CC#CCn1c(N2CCC[C@@H](N)C2)nc2c1c(=O)n(Cc1ccc(Cl)cc1C(=O)OC)c(=O)n2C : reported Tmax = ?
Reply: 60

---

The compounds listed here are annotated with their AUC(0-inf).
# method_summary: AUC (0 to infinity) in Sprague-Dawley rat at 5 mg/kg, iv measured after 48 hrs by LC-MS/MS analysis
# Format: ADME, organism-based
# Design: dose 5 mg/kg, route intravenous, time infinity
# measurement_setup: in vivo
Give the number; ng·h/mL is assumed, so skip it.

Task item: Look up AUC(0-inf) for this compound: CC#CCn1c(N2CCC[C@@H](N)C2)nc2c1c(=O)n(Cc1ccc(Br)cc1C(=O)O)c(=O)n2C
Reply: 23500

Task item: Another compound to check: CC#CCn1c(N2CCC[C@@H](N)C2)nc2c1c(=O)n(Cc1cc(Cl)ccc1C(=O)O)c(=O)n2C
Reply: 4860

Task item: What about this compound? CC#CCn1c(N2CCC[C@@H](N)C2)nc2c1c(=O)n(Cc1ccc(Cl)cc1C(=O)O)c(=O)n2C
Reply: 9620

---
Task item: # AUC(0-inf) lookup, item CC#CCn1c(N2CCC[C@@H](N)C2)nc2c1c(=O)n(Cc1cc(OC)ccc1C(=O)O)c(=O)n2C
Reply: 3930

---

# method_summary: Cytotoxicity against human LO2 cells assessed as cell viability at 10 uM after 48 hrs by MTT assay
# Format: cell-based, L02
# measurement_setup: read-out: Activity
quantity_kind: viability at 48 h, 10 µM (%)
# number only, unit % dropped from output

Task item: // query viability at 48 h, 10 µM value for entry COc1cccc2c1C(=O)c1c(O)c3c(c(O)c1C2=O)C[C@@](O)(C(=O)CO)C[C@@H]3O[C@H]1C[C@H](N)[C@H](O)[C@H](C)O1
Reply: 35

---

# method_summary: Stability in Sprague-Dawley rat plasma assessed as compound remaining at 1 uM measured up to 120 mins by LC-MS/MS analysis relative to control
# Format: ADME, cell-free
# measurement_setup: read-out: Stability
quantity_kind: remaining at 2 h, 1 µM (%)
The response must be a number in % with no trailing unit.

Known remaining at 2 h, 1 µM results, listed for orientation:
Task item: Field request: remaining at 2 h, 1 µM | item: CC#CCn1c(N2CCC[C@@H](N)C2)nc2c1c(=O)n(Cc1ccc(Br)cc1C(=O)O)c(=O)n2C
Reply: 98.3

Task item: Please do the same for CC#CCn1c(N2CCC[C@@H](N)C2)nc2c1c(=O)n(Cc1ccc(Br)cc1C(=O)OCc1oc(=O)oc1C)c(=O)n2C as well.
Reply: 2.11

Consider now this further compound.
Task item: Requested read-out: remaining at 2 h, 1 µM. Entry: CC#CCn1c(N2CCC[C@@H](N)C2)nc2c1c(=O)n(Cc1ccc(Br)cc1C(=O)OC)c(=O)n2C
Reply: 54.2

---

# viability at 48 h, 20 µM listing for each entry below
# method_summary: Cytotoxicity against human LO2 cells assessed as cell viability at 20 uM after 48 hrs by MTT assay
# Type: cell-based, L02
# measurement_setup: read-out: Activity
Please state the value followed by its unit.

Completed entries (count: 3):
Task item: Report viability at 48 h, 20 µM for CC#CCn1c(N2CCC[C@@H](N)C2)nc2c1c(=O)n(Cc1ccc(Br)cc1C(=O)OC)c(=O)n2C please.
Reply: 70%

Task item: Another compound to look at: CC#CCn1c(N2CCC[C@@H](N)C2)nc2c1c(=O)n(Cc1ccc(Br)cc1C(=O)OCC)c(=O)n2C
Reply: 50%

Task item: Try the compound CC#CCn1c(N2CCC[C@@H](N)C2)nc2c1c(=O)n(Cc1ccc(Cl)cc1C(=O)OCC)c(=O)n2C
Reply: 80%

// next item, viability at 48 h, 20 µM requested
Task item: Which viability at 48 h, 20 µM value belongs to CC#CCn1c(N2CCC[C@@H](N)C2)nc2c1c(=O)n(Cc1ccc(Cl)cc1C(=O)OC)c(=O)n2C ?
Reply: 90%

---

# method_summary: Cmax in Sprague-Dawley rat at 10 mg/kg, po via gavage after 48 hrs by LC-MS/MS analysis
# Assay type: ADME, organism-based
# Set-up: dose 10 mg/kg, route oral
# measurement_setup: in vivo
quantity_kind: Cmax (µg/mL)
Provide only the numeric value, understood in µg/mL.

Task item: Endpoint output: Cmax of CC#CCn1c(N2CCC[C@@H](N)C2)nc2c1c(=O)n(Cc1ccc(Cl)cc1C(=O)OC)c(=O)n2C . Value?
Reply: 1.18

Task item: Likewise for CC#CCn1c(N2CCC[C@@H](N)C2)nc2c1c(=O)n(Cc1ccc(Cl)cc1C(=O)OCC)c(=O)n2C ?
Reply: 0.508

Now look at this entry.
Task item: Using the record for CC#CCn1c(N2CCC[C@@H](N)C2)nc2c1c(=O)n(Cc1ccc(Cl)cc1C(=O)O)c(=O)n2C , report its Cmax.
Reply: 2.34

---

# method_summary: Stability in Sprague-Dawley rat plasma assessed as compound remaining at 1 uM measured up to 120 mins by LC-MS/MS analysis relative to control
# Assay type: ADME, cell-free
# measurement_setup: read-out: Stability
quantity_kind: remaining at 2 h, 1 µM (%)
Your answer should be a plain number; it is taken to be in %.

Some solved entries appear below for comparison.
Task item: I have this compound here, CC#CCn1c(N2CCC[C@@H](N)C2)nc2c1c(=O)n(Cc1ccc(Cl)cc1C(=O)OCC)c(=O)n2C , and I need its recorded remaining at 2 h, 1 µM.
Reply: 70.2

Task item: Could you do the same for CC#CCn1c(N2CCC[C@@H](N)C2)nc2c1c(=O)n(Cc1ccc(Cl)cc1C(=O)OC)c(=O)n2C , please?
Reply: 65.2

Task item: What do we get for CC#CCn1c(N2CCC[C@@H](N)C2)nc2c1c(=O)n(Cc1ccc(Cl)cc1C(=O)O)c(=O)n2C ?
Reply: 102

Task item: Cool, now CC#CCn1c(N2CCC[C@@H](N)C2)nc2c1c(=O)n(Cc1ccc(Br)cc1C(=O)OCC)c(=O)n2C
Reply: 62.2

Please turn your attention to the following entry.
Task item: Which measured remaining at 2 h, 1 µM value corresponds to CC#CCn1c(N2CCC[C@@H](N)C2)nc2c1c(=O)n(Cc1ccc(Cl)cc1C(=O)OCc1oc(=O)oc1C)c(=O)n2C ?
Reply: 1.25
